experiment: CYP450 metabolic stability, rat liver microsomes; assay type: in vitro ADME; details: 5 μM in liver microsomes, 1 h incubation
PROPERTY_NAME: CYP450 metabolic stability, Rat, percent of remaining

Recorded CYP450 metabolic stability, Rat, percent of remaining, per entry:
{"CHEM_SMILES": "CC1(C)COCN1C(=O)n1nnc2cc(C(N)=O)ccc21", "REPORTED_VALUE": "87±0% of remaining"}
{"CHEM_SMILES": "CN(C(=O)n1cnc(-c2ccccc2)c1)C1CCN(Cc2ccccc2)CC1", "REPORTED_VALUE": "88±6% of remaining"}
{"CHEM_SMILES": "CC1(C)COCN1C(=O)n1nnc2ccccc21", "REPORTED_VALUE": "26±0% of remaining"}

The reported value for CN(C(=O)n1cnc(-c2ccc[n+]([O-])c2)c1)C1CCCCC1 in terms of CYP450 metabolic stability, Rat, percent of remaining is 91±1% of remaining

----------
assay: CYP450 metabolic stability, dog liver microsomes; type: in vitro ADME; conditions: 5 μM in liver microsomes, 1 h incubation
We begin with a simple list: items and their reported CYP450 metabolic stability, Dog, percent of remaining.

Examples with their reported CYP450 metabolic stability, Dog, percent of remaining follow.
{"CHEM_SMILES": "CC1(C)COCN1C(=O)n1nnc2ccccc21", "REPORTED_VALUE": "1±0% of remaining"}
{"CHEM_SMILES": "CN(C(=O)n1cnc(-c2ccccc2)c1)C1CCN(Cc2ccccc2)CC1", "REPORTED_VALUE": "54±0% of remaining"}
{"CHEM_SMILES": "CN(C(=O)n1cnc(-c2ccc[n+]([O-])c2)c1)C1CCCCC1", "REPORTED_VALUE": "94±2% of remaining"}

Noted for CC1(C)COCN1C(=O)n1nnc2cc(C(N)=O)ccc21 : its CYP450 metabolic stability, Dog, percent of remaining reads 101±6% of remaining

----------
Molecular target: FAAH (Mus musculus, UniProt O08914)
Sequence (O08914 1-579): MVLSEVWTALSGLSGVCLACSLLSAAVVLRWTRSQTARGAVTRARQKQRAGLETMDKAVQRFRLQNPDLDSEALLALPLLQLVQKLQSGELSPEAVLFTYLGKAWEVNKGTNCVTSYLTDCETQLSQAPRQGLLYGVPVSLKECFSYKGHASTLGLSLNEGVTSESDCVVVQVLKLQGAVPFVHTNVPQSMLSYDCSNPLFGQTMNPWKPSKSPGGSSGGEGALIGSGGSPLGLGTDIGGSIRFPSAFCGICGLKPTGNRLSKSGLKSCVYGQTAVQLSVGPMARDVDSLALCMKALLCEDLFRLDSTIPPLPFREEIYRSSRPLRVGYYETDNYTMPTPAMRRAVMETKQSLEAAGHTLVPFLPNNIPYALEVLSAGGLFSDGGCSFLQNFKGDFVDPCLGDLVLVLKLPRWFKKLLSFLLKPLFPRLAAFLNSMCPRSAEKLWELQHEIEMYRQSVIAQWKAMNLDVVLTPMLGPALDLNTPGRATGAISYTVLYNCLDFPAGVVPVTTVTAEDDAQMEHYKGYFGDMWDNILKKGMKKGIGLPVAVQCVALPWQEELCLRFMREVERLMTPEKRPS
Test: In vivo FAAH inhibition, liver, after oral administration to mice
Settings: 0.1 mg kg^−1 p.o. in mice, 8 h after administration; Table 5
compounds and their reported Liver FAAH activity, percent of control

Example entries and their recorded answers appear below.
{"COMPOUND": "CN(C(=O)n1cnc(-c2cccnc2)c1)C1CCCCC1 [Compound 8 k]", "REPORTED_VALUE": "13±4% of control"}
{"COMPOUND": "CC1(C)COCN1C(=O)n1cnc(-c2ccccc2)c1 [Compound 8 f]", "REPORTED_VALUE": "53±6% of control"}
{"COMPOUND": "CN(C(=O)n1cnc(-c2ccccc2)c1)C1CCOCC1 [Compound 8 i]", "REPORTED_VALUE": "12±4% of control"}
{"COMPOUND": "CN(C(=O)n1cnc(-c2ccccc2)c1)C1CCN(Cc2ccccc2)CC1 [Compound 8 h]", "REPORTED_VALUE": "10±2% of control"}
{"COMPOUND": "CN(C(=O)n1cnc(-c2ccccc2)c1)C1CCCCC1 [Compound 8 j]", "REPORTED_VALUE": "33±2% of control"}

Turning to the following compound.
The recorded Liver FAAH activity, percent of control for entry CN(C(=O)n1cnc(-c2ccc[n+]([O-])c2)c1)C1CCCCC1 [Compound 8 l] equals 6±2% of control
